These data points were gathered from patent US11420922B2.

experiment: Mouse liver microsome assay; format: in vitro ADME; details: mouse, liver microsomes, 1 μM in mouse liver microsomes; read-out: CL ′hep
assay-endpoint: predicted hepatic clearance at 1 μM (L/h/kg)
The response must be a number in L/h/kg with no trailing unit.

Quick one: predicted hepatic clearance at 1 μM for CC(=O)c1cc(O)c(=O)c(O)cc1C ?
1.2

Quick one: predicted hepatic clearance at 1 μM for Cc1cc(O)c(=O)c(O)cc1C(=O)c1ccc(-c2ccccc2)cc1 ?
3.42

Quick one: predicted hepatic clearance at 1 μM for Cc1cc(O)c(=O)c(O)cc1-c1ccc(-c2ccccc2)cc1 ?
4.08

====

assay: Mouse liver microsome assay; format: in vitro ADME; conditions: mouse, liver microsomes, 1 μM in mouse liver microsomes
I'd appreciate it if you could supply CLint scaled at 1 μM values for the items below.
The response must be a number in mL/min/kg with no trailing unit.

Quick one: CLint scaled at 1 μM for Cc1cc(O)c(=O)c(O)cc1C(=O)c1ccc(-c2ccccc2)cc1 ?
154

Quick one: CLint scaled at 1 μM for Cc1cc(O)c(=O)c(O)cc1-c1ccc(-c2ccccc2)cc1 ?
285

Quick one: CLint scaled at 1 μM for CC(=O)c1cc(O)c(=O)c(O)cc1C ?
26
